Reference source for all entries: patent US10377764B2

# measurementNotes: Rodent pharmacokinetics: oral bioavailability and clearance, plasma
# Format: in vivo, mouse
# setupConditions: IV, 5 mg/kg; male CD1 mouse plasma; free base
experimentalEndpoint: AUC (ng·h/mL)
Give bare numbers, in ng·h/mL.

Name the reported AUC value associated with the compound COC1CN(Cc2cnc3oc4c(N5CCOCC5)nc(-c5c(F)ccc6[nH]ccc56)nc4c3c2)C1
2930

----------
# measuredTarget: PI3K-p110β (Homo sapiens, UniProt P42338)
# Sequence (P42338 whole entry, canonical isoform): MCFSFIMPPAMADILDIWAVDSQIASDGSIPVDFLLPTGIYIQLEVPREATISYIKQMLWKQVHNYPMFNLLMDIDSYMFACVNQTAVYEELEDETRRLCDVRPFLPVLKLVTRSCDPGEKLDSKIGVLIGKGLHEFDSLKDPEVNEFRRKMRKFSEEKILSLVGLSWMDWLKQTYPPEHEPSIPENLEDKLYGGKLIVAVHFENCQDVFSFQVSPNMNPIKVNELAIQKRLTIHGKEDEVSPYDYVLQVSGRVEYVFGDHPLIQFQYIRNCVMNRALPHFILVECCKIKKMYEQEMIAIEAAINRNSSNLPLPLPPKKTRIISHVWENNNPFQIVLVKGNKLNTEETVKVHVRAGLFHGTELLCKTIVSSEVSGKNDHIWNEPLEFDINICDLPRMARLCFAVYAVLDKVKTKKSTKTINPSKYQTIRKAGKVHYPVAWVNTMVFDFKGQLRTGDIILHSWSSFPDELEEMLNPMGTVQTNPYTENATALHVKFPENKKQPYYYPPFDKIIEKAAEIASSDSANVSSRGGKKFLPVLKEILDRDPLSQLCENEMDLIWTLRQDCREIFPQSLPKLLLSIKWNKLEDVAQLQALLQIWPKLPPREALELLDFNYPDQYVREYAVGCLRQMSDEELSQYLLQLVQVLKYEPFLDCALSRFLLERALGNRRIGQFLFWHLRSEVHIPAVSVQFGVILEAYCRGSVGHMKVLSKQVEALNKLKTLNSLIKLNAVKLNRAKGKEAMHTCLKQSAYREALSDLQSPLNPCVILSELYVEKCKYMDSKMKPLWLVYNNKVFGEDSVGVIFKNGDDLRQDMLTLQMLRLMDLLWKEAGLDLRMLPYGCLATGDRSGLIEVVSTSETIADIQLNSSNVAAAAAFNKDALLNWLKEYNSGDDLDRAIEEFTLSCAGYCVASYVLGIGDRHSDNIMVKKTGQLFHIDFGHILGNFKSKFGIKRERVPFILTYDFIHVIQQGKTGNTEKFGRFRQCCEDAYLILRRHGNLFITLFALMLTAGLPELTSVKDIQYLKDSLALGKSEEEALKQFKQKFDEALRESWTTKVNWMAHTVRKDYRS
# Sequence (P27986 whole entry partner, canonical isoform): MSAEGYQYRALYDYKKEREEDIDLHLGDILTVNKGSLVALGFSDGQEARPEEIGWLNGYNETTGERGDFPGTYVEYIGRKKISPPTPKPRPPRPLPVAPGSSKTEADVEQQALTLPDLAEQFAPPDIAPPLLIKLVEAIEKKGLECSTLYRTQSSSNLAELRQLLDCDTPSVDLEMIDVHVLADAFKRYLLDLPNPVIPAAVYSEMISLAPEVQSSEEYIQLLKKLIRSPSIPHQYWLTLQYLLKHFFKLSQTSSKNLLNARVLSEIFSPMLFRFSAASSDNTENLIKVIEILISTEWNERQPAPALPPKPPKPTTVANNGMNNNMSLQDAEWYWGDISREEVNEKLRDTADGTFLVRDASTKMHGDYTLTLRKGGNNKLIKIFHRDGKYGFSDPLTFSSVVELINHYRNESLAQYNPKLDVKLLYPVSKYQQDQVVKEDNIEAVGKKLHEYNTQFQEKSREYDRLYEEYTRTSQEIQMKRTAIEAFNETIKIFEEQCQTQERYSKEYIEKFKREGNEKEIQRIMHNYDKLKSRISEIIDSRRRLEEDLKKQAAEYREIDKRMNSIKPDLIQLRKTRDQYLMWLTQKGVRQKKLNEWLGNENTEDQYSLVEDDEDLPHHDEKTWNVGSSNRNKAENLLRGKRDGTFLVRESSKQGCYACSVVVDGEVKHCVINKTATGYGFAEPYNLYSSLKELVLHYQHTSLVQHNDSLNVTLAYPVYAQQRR
# measurementNotes: Fold isoform selectivity from Ki determination, non-radiometric ADP-Glo assay (Proqinase)
# Format: biochemical
# setupConditions: class I PI3K isoforms

>  <smilesRepr>
COC1CN(Cc2cnc3oc4c(N5CCOCC5)nc(-c5ccc(F)c6[nH]ccc56)nc4c3c2)C1

>  <FOLD Ki p110β/p110α>
* (* <10x)

$$$$
>  <smilesRepr>
CCN1CCN(Cc2cnc3oc4c(N5CCOCC5)nc(-c5c(F)ccc6[nH]ccc56)nc4c3c2)CC1=O

>  <FOLD Ki p110β/p110α>
* (* <10x)

$$$$

----------
# measurementNotes: Rodent pharmacokinetics: oral bioavailability and clearance, plasma
# Assay type: in vivo, mouse
# setupConditions: PO, 10 mg/kg; male CD1 mouse plasma; free base
experimentalEndpoint: AUC (ng·h/mL)
Give bare numbers, in ng·h/mL.

Name the reported AUC value associated with the compound COC1CN(Cc2cnc3oc4c(N5CCOCC5)nc(-c5c(F)ccc6[nH]ccc56)nc4c3c2)C1
2780

----------
# measuredTarget: PI3K-p110β (Homo sapiens, UniProt P42338)
# measurementNotes: Fold isoform selectivity from Ki determination, non-radiometric ADP-Glo assay (Proqinase)
# Type: biochemical
# setupConditions: class I PI3K isoforms

>  <compound>
Fc1ccc2[nH]ccc2c1-c1nc(N2CCOCC2)c2oc3ncc(N4CCOCC4)cc3c2n1 [Example O]

>  <measuredTarget>
PI3K-p110β (Homo sapiens, UniProt P42338)

>  <FOLD Ki p110β/p110α>
* (* <10x)

$$$$
>  <compound>
COC1CN(Cc2cnc3oc4c(N5CCOCC5)nc(-c5cccc6[nH]cc(F)c56)nc4c3c2)C1 [Example Q]

>  <measuredTarget>
PI3K-p110β (Homo sapiens, UniProt P42338)

>  <FOLD Ki p110β/p110α>
** (** ≥10x < 50x)

$$$$
>  <compound>
Fc1cc(-c2nc(N3CCOCC3)c3oc4ncc(CN5CCC6(CC5)COC6)cc4c3n2)c2cc[nH]c2c1 [Example B]

>  <measuredTarget>
PI3K-p110β (Homo sapiens, UniProt P42338)

>  <FOLD Ki p110β/p110α>
** (** ≥10x < 50x)

$$$$
>  <compound>
COC1CN(Cc2cnc3oc4c(N5CCOCC5)nc(-c5cc(C(F)(F)F)cc6[nH]ccc56)nc4c3c2)C1 [Example L]

>  <measuredTarget>
PI3K-p110β (Homo sapiens, UniProt P42338)

>  <FOLD Ki p110β/p110α>
* (* <10x)

$$$$

----------
# measurementNotes: Rodent pharmacokinetics: oral bioavailability and clearance, plasma
# Type: in vivo, mouse
# setupConditions: PO, 10 mg/kg; male CD1 mouse plasma; free base
experimentalEndpoint: Cmax (ng/mL)
Numbers only, in ng/mL.

Name the reported Cmax value associated with the compound COC1CN(Cc2cnc3oc4c(N5CCOCC5)nc(-c5c(F)ccc6[nH]ccc56)nc4c3c2)C1
1290
